Hey, just so you know, these numbers are from paper PMC3195894.

molecular target: recombinant human RSK2 (Homo sapiens); test: IMAP fluorescence polarization kinase inhibition assay, RSK2; conditions: read-out: IC50 RSK2; single assay; head-to-head testing, single batch of enzyme
Sequence (P51812 whole entry): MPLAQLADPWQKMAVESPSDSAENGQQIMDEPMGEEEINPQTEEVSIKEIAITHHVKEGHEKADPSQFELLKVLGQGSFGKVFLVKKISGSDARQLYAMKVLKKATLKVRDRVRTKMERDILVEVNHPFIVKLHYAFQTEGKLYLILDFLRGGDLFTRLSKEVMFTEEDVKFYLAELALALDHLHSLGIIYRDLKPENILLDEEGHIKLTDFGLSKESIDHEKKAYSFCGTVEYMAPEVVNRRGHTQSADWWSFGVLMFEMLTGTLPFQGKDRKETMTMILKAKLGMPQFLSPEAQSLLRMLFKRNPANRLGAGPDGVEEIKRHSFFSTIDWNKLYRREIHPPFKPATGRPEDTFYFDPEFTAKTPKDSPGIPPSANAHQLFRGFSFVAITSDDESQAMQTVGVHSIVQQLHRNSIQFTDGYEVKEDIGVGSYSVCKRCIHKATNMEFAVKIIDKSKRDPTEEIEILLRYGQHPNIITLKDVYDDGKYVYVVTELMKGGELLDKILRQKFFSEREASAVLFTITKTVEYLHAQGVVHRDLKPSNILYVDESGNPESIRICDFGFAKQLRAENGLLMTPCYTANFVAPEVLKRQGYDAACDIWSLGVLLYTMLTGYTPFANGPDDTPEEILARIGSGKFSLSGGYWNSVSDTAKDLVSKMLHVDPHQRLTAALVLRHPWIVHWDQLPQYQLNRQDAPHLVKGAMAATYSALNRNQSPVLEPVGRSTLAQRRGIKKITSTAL
Property measured: pIC50
pIC50 here: minus log base 10 of the concentration, concentration in moles per litre.

Problem: Form entry - test system: recombinant human RSK2 (Homo sapiens); read-out: pIC50; compound: CC(=NNC(=N)N)c1ccc(NC(=O)c2cc3cccc([N+](=O)[O-])c3[nH]2)cc1 [PV1019]
Result: 4.41
